Kindly return MET if reported glass transition temperature is no lower than 200 °C; return NOT MET if it is lower.

>  <compound>
*CCN(CCOC(=O)Nc1ccc(C)c(NC(=O)O*)c1)c1ccc(/N=N/c2ccc(/C=C/c3nc4ccc([N+](=O)[O-])cc4n3CC)cc2)cc1 (repeat unit)

>  <label.value>
NOT MET

$$$$
>  <compound>
*OC1CCC(OC(*)=O)CC1 (repeat unit)

>  <label.value>
NOT MET

$$$$
>  <compound>
*CCCCCCCCN1C(=O)c2ccc(C(c3ccc4c(c3)C(=O)N(*)C4=O)(C(F)(F)F)C(F)(F)F)cc2C1=O (repeat unit)

>  <label.value>
NOT MET

$$$$
>  <compound>
*CC(COc1ccc(C(C)(c2ccccc2)c2ccc(O*)cc2)cc1)OC(=O)c1ccccc1 (repeat unit)

>  <label.value>
NOT MET

$$$$
>  <compound>
*CCCCCC(=O)Oc1ccc(C(C)(C)c2ccc(OC(=O)c3ccc4c(c3)C(=O)N(*)C4=O)cc2)cc1 (repeat unit)

>  <label.value>
NOT MET

$$$$
>  <compound>
*CC(*)OC(=O)C(F)(F)C(F)(F)C(F)(F)C(F)(F)C(F)(F)C(F)(F)C(F)(F)F (repeat unit)

>  <label.value>
NOT MET

$$$$
>  <compound>
*c1ccc(Oc2ccc(C(C)(C)c3ccc(Oc4ccc(N5C(=O)c6ccc(Oc7ccccc7Oc7ccc8c(c7)C(=O)N(*)C8=O)cc6C5=O)cc4C(F)(F)F)cc3)cc2)c(C(F)(F)F)c1 (repeat unit)

>  <label.value>
NOT MET

$$$$
>  <compound>
*C/C=C/C(CC)S(*)(=O)=O (repeat unit)

>  <label.value>
NOT MET

$$$$
>  <compound>
*C(=O)NNC(=O)c1ccc([Si](c2ccccc2)(c2ccccc2)c2ccc(C(=O)NNC(=O)c3ccc(*)nc3)cc2)cc1 (repeat unit)

>  <label.value>
MET

$$$$
>  <compound>
*CCN(CCOC(=O)Nc1ccc(C)c(NC(=O)O*)c1)c1ccc(/N=N/c2ccc(B(c3c(C)cc(C)cc3C)c3c(C)cc(C)cc3C)cc2)cc1 (repeat unit)

>  <label.value>
NOT MET

$$$$

### Prompt Threshold query (glass transition temperature >= 200 °C) on *Oc1ccc(Oc2ccc(NC(=O)c3ccc(Oc4ccc(C(C)(C)c5cccc(C(C)(C)c6ccc(Oc7ccc(C(=O)Nc8ccc(*)cc8)cc7)cc6)c5)cc4)cc3)cc2)cc1 (repeat unit)
### Response NOT MET

### Prompt Threshold query (glass transition temperature >= 200 °C) on *CC(=O)Nc1ccc(Oc2ccc(NC(=O)COc3ccc4ccccc4c3Sc3c(O*)ccc4ccccc34)cc2)cc1 (repeat unit)
### Response MET

### Prompt Threshold query (glass transition temperature >= 200 °C) on *c1ccc(C(=O)Nc2cccc(Oc3ccc(S(=O)(=O)c4ccc(Oc5cccc(NC(=O)c6ccc(N7C(=O)c8ccc(-c9ccc%10c(c9)C(=O)N(*)C%10=O)cc8C7=O)cc6)c5)cc4)cc3)c2)cc1 (repeat unit)
### Response MET

* * *

Readings of glass transition temperature for the listed compounds
Answer format: numeric, °C implied, no suffix.

Below, 2 compounds whose answers are already recorded.
>  <compound>
*Cc1cc2cc(C(=O)Nc3ccc(Oc4ccc(NC(=O)c5cc6cc(*)c(OC(=O)COc7ccc8ccc(=O)oc8c7)cc6oc5=O)cc4)cc3)c(=O)oc2cc1OC(=O)COc1ccc2ccc(=O)oc2c1 (repeat unit)

>  <glass transition temperature / °C>
226.00

$$$$
>  <compound>
*CCCCCCOc1ccc(C(C)(C)c2ccc(O*)cc2)cc1 (repeat unit)

>  <glass transition temperature / °C>
36.00

$$$$

Briefly, glass transition temperature measured for *C(=O)Nc1cc(NC(=O)c2cccc(*)n2)cc(-c2nnc(-c3ccccn3)o2)c1 (repeat unit) : 255.00

Briefly, glass transition temperature measured for *CCN(CCOC(=O)Nc1ccc(C)c(NC(=O)O*)c1)c1ccc(-c2nc3ccc([N+](=O)[O-])cc3o2)cc1 (repeat unit) : 156.00

Briefly, glass transition temperature measured for *CCCCCCCOC(=O)NCCCCCCNC(=O)O* (repeat unit) : 55.00

Briefly, glass transition temperature measured for *CC(*)C(=O)OCCCCCCCCCCCCOc1ccc(C(=O)Oc2ccc(-c3cccc(OC(=O)c4ccc(OC(=O)c5ccc(OCCCCCCCCCCCC)cc5)cc4)c3)cc2)cc1 (repeat unit) : 67.00
